- TARGET UNDER TEST: Cdk5/p25 (Homo sapiens)
- Sequence (Q00535 whole entry, species assumed): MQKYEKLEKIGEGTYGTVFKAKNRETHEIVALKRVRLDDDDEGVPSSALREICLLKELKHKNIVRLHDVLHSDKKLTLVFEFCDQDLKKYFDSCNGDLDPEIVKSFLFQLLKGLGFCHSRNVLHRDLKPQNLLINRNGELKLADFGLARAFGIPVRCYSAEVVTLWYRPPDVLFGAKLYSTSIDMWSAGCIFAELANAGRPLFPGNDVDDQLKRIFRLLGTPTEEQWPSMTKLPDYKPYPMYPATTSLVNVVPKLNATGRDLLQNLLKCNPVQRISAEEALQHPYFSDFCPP
- Sequence (Q15078 99-307 partner limits assumed, species assumed): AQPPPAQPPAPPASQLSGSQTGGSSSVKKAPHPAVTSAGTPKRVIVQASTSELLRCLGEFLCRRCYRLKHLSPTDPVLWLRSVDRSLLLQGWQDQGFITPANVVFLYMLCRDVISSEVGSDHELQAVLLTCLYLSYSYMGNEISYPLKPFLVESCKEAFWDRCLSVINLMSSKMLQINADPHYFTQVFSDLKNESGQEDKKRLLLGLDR
- MEASUREMENT PROTOCOL: FRET-based Z'-LYTE Cdk5 kinase assay, Cdk5/p25
- RUN CONDITIONS: Cdk5/p25, Table 1
QUANTITY KIND: log10 IC50 (log10 of the value in µM)

INSERT INTO measurements (molecule, target_under_test, reported_value) VALUES
  ('CC1OC(Oc2c(O)cc(O)c3c(=O)c(O)c(-c4ccc(O)cc4)oc23)C(O)C(O)C1O (stereo not shown)', 'Cdk5/p25 (Homo sapiens)', 0.51),
  ('O=C(OCC1OC(Oc2ccc(O)cc2)C(O)C(O)C1O)c1cc(O)c(O)c(O)c1 (stereo not shown)', 'Cdk5/p25 (Homo sapiens)', 0.75),
  ('COc1ccc(-c2oc3c(O)c(O)cc(O)c3c(=O)c2O)cc1', 'Cdk5/p25 (Homo sapiens)', 0.08),
  ('O=C(O[C@@H]1Cc2c(O)cc(O)cc2O[C@@H]1c1cc(O)c(O)c(O)c1)c1cc(O)c(O)c(O)c1 [Compound F199-C35, epigallocatechin-3-gallate]', 'Cdk5/p25 (Homo sapiens)', 1.17),
  ('O=C(O)c1cc(O)c(O)c(O)c1', 'Cdk5/p25 (Homo sapiens)', 1.61),
  ('O=C(OCC1OC(OC/C=C/c2ccccc2)C(O)C(O)C1O)c1cc(O)c(O)c(O)c1 (stereo not shown)', 'Cdk5/p25 (Homo sapiens)', 1.30),
  ('O=c1c(O)c(-c2ccc(O)cc2)oc2c(OC3OCC(O)C(O)C3O)c(O)cc(O)c12 (stereo not shown)', 'Cdk5/p25 (Homo sapiens)', 1.54);
